# Tested System: ΔF508-CFTR (Homo sapiens, UniProt P13569, DEL508-508)
# Construct: expressed in transfected cells
# Sequence (P13569 with tags, fused parts or gaps DEL508-508): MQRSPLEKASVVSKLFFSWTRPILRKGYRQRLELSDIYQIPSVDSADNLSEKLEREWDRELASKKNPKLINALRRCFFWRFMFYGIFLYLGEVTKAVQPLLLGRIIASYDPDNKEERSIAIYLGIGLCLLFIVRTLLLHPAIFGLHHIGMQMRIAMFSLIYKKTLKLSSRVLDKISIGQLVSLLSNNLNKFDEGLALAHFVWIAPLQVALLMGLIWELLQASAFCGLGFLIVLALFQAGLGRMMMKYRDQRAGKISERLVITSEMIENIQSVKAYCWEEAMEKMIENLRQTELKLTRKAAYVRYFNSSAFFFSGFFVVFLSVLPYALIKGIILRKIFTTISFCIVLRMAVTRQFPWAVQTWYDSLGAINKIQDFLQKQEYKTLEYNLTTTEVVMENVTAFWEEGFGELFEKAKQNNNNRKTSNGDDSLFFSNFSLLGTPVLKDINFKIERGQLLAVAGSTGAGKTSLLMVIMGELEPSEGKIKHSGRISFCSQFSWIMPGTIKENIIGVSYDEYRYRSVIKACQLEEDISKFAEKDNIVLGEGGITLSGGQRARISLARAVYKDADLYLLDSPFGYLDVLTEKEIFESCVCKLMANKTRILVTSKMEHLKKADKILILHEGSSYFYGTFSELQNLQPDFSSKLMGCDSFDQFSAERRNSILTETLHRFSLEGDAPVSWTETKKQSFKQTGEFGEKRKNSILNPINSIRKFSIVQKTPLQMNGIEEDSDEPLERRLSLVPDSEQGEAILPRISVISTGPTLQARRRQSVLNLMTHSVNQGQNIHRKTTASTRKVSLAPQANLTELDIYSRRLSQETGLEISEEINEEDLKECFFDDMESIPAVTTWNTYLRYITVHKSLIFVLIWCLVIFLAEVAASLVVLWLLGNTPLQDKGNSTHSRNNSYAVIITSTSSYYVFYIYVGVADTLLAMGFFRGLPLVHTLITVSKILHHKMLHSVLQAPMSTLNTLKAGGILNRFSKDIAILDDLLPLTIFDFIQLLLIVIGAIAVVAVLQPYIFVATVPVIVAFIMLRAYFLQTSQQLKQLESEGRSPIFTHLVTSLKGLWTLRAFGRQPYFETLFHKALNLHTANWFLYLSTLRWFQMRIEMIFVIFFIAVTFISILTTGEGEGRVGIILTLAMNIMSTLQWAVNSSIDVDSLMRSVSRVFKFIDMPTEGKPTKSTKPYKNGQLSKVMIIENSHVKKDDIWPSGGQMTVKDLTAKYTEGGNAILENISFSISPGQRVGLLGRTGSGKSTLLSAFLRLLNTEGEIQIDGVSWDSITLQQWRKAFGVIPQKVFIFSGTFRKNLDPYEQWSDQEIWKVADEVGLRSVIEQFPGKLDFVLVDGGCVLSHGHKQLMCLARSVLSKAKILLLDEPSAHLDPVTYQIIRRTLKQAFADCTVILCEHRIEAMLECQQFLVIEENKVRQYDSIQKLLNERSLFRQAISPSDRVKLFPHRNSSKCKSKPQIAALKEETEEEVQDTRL
# Test Details: Membrane potential optical assay for potentiators of ΔF508-CFTR (FLIPR III, voltage sensing dyes)
# Type: cell-based
# Experimental Parameters: NIH3T3; 100% efficacy is the maximum response obtained with 4-methyl-2-(5-phenyl-1H-pyrazol-3-yl)phenol; ΔF508 CFTR NIH 3T3 cells
Each entry below carries its recorded Emax.

INSERT INTO assay_data (compound, readout_value) VALUES
  ('O=C(Nc1cc(O)c(C2CCCC2)cc1C(F)(F)F)C1CNc2ccc(F)cc2O1 (centres unmarked)', '25 to 100%'),
  ('CN1CCC(c2cc(C3CCCC3)c(O)cc2NC(=O)C2CNc3cc(C#N)ccc3O2)CC1 (centres unmarked)', '< 25%'),
  ('O=C(Nc1cc(O)c(C2CCCC2)cc1C#CCO)C1CNc2cc(OC(F)(F)F)ccc2O1 (centres unmarked)', '25 to 100%');

[ask] // lookup Emax for Cc1cc(N2C3CCC2CC3)ncc1NC(=O)C1CNc2ccc(F)cc2O1 (centres unmarked)
[reply] 25 to 100%

[ask] Item: COc1ccc2c(c1)OC(C(=O)Nc1ccc(C(C)(C)C)c(O)c1)CN2 (centres unmarked)
[reply] < 25%

[ask] Same question for CCOC(=O)CCc1cc(C2CCCC2)c(O)cc1NC(=O)C1CNc2cc(OC(F)(F)F)ccc2O1 (centres unmarked) please.
[reply] > 100%

[ask] Try the compound CC(C)(C)c1ccc(NC(=O)C2CNc3cccc(C(F)(F)F)c3O2)cc1O (centres unmarked)
[reply] 25 to 100%

[ask] Cool, now Cc1ccc(NC(=O)C2CNc3cc(OC(F)(F)F)ccc3O2)c(C#CCN2CCN(C)CC2)c1 (centres unmarked)
[reply] 25 to 100%

* * *

Listed below: Emax values for each entry.
# Tested System: ΔF508-CFTR (Homo sapiens, UniProt P13569, DEL508-508)
# Construct: expressed in transfected cells
# Test Details: Membrane potential optical assay for potentiators of ΔF508-CFTR (FLIPR III, voltage sensing dyes)
# Type: cell-based
# Experimental Parameters: NIH3T3; 100% efficacy is the maximum response obtained with 4-methyl-2-(5-phenyl-1H-pyrazol-3-yl)phenol; ΔF508 CFTR NIH 3T3 cells

Worked examples, 2 molecules total:
INSERT INTO assay_data (molecule, readout, readout_value) VALUES
  ('CCN1CCN(c2cc(C3CCCC3)c(O)cc2NC(=O)C2CNc3cc(C#N)ccc3O2)CC1 (stereo not shown)', 'Emax', '< 25%'),
  ('Cc1ccc(NC(=O)C2CNc3cc(OC(F)(F)F)ccc3O2)c(C#CCN2CCC(F)(F)C2)c1 (stereo not shown)', 'Emax', '25 to 100%');

Let's switch to this molecule now.
[ask] Could you share which Emax value was measured for Cc1ccc(NC(=O)C2CNc3cc(OC(F)(F)F)ccc3O2)c(CCN2CC[C@@H](F)C2)c1 (stereo partly shown) ?
[reply] 25 to 100%

* * *

Reported Emax values for a set of compounds
# Tested System: ΔF508-CFTR (Homo sapiens, UniProt P13569, DEL508-508)
# Construct: expressed in transfected cells
# Test Details: Membrane potential optical assay for potentiators of ΔF508-CFTR (FLIPR III, voltage sensing dyes)
# Type: cell-based
# Experimental Parameters: NIH3T3; 100% efficacy is the maximum response obtained with 4-methyl-2-(5-phenyl-1H-pyrazol-3-yl)phenol; ΔF508 CFTR NIH 3T3 cells

INSERT INTO assay_data (compound, tested_system, readout_value) VALUES
  ('COc1ccc2c(c1)NCC(C(=O)Nc1ccc(C(C)(C)C)c(O)c1)O2 (centres unmarked)', 'ΔF508-CFTR (Homo sapiens, UniProt P13569, DEL508-508)', '< 25%'),
  ('O=C(Nc1ccc(O)c(OC(F)(F)F)c1)C1CNc2ccc(F)cc2O1 (centres unmarked)', 'ΔF508-CFTR (Homo sapiens, UniProt P13569, DEL508-508)', '25 to 100%'),
  ('O=C(Nc1cc(O)c(C2CCCC2)cc1C#CCN1CCCC1)C1CNc2cc(OC(F)(F)F)ccc2O1 (centres unmarked)', 'ΔF508-CFTR (Homo sapiens, UniProt P13569, DEL508-508)', '> 100%'),
  ('Cc1ccc(NC(=O)C2CNc3cc(OC(F)(F)F)ccc3O2)c(CCCN(C)C)c1 (centres unmarked)', 'ΔF508-CFTR (Homo sapiens, UniProt P13569, DEL508-508)', '25 to 100%');

[ask] Emax lookup needed for CC(C)c1ccc(NC(=O)C2CNc3cc(Cl)ccc3O2)c(C#CCN(C)C)c1 (centres unmarked) , thanks.
[reply] 25 to 100%

[ask] Check Cc1ccc(NC(=O)C2CNc3cc(OC(F)(F)F)ccc3O2)c(C#CCN2CCC(C(=O)O)CC2)c1 (centres unmarked) too.
[reply] 25 to 100%

[ask] Consider next the compound O=C(Nc1cc(O)cc(C(F)(F)F)c1)C1CNc2ccccc2O1 (centres unmarked) in the same way.
[reply] 25 to 100%

[ask] And what about the compound Cc1cc(C#CCN(C)C)c(NC(=O)C2CNc3cc(OC(F)(F)F)ccc3O2)cc1C (centres unmarked) ?
[reply] 25 to 100%

[ask] And the next one, CC(C)(C)c1ccc(NC(=O)C2CNc3c(F)cccc3O2)cc1O (centres unmarked) ?
[reply] 25 to 100%

[ask] Check CNCC#Cc1cc(C2CCCC2)c(O)cc1NC(=O)C1CNc2cc(OC(F)(F)F)ccc2O1 (centres unmarked) too.
[reply] 25 to 100%

[ask] Can you handle COC(=O)Cc1cc(C2CCCC2)c(O)cc1NC(=O)C1CNc2cc(OC(F)(F)F)ccc2O1 (centres unmarked) next?
[reply] > 100%

[ask] What about CC(C)(C)c1cc(C2CCCC2)c(O)cc1NC(=O)C1CNc2cc(C#N)ccc2O1 (centres unmarked) ?
[reply] 25 to 100%

[ask] Another compound to look at: CC[N+](CC)(CC)CC#Cc1cc(C)ccc1NC(=O)C1CNc2cc(OC(F)(F)F)ccc2O1 (centres unmarked)
[reply] 25 to 100%

[ask] Now the compound N#Cc1ccc2c(c1)NCC(C(=O)Nc1cc(O)c(C3CCCC3)cc1C1=CCNCC1)O2 (centres unmarked)
[reply] 25 to 100%

[ask] And the next one, CC(C)Oc1c(O)cccc1NC(=O)C1CNc2ccc(F)cc2O1 (centres unmarked) ?
[reply] 25 to 100%

[ask] // repeat for Cc1cc(C2CCCC2)c(O)cc1NC(=O)C1CNc2cc(C#N)ccc2O1 (centres unmarked) and report
[reply] 25 to 100%

[ask] Proceed to CN(C)CC#Cc1cc(C2CCCC2)ccc1NC(=O)C1CNc2cc(C#N)ccc2O1 (centres unmarked)
[reply] 25 to 100%

* * *

# Tested System: ΔF508-CFTR (Homo sapiens, UniProt P13569, DEL508-508)
# Construct: expressed in transfected cells
# Test Details: Membrane potential optical assay for potentiators of ΔF508-CFTR (FLIPR III, voltage sensing dyes)
# Type: cell-based
# Experimental Parameters: temperature-corrected ΔF508 CFTR NIH 3T3 cells, forskolin activation
Readout: EC50

INSERT INTO assay_data (compound, readout_value) VALUES
  ('Cc1ccc(NC(=O)C2CNc3cc(OC(F)(F)F)ccc3O2)c(C#CCN(C)C)n1 (stereo not drawn)', '< 5 µM');

# context switch: different compound, same EC50
[ask] Requested read-out: EC50. Entry: COc1cc(NC(=O)C2CNc3cc(OC(F)(F)F)ccc3O2)c(C#CCN(C)C)cc1C1CCCC1 (stereo not drawn)
[reply] < 5 µM

* * *

# Tested System: ΔF508-CFTR (Homo sapiens, UniProt P13569, DEL508-508)
# Construct: expressed in transfected cells
# Test Details: Membrane potential optical assay for potentiators of ΔF508-CFTR (FLIPR III, voltage sensing dyes)
# Format: cell-based
# Experimental Parameters: NIH3T3; 100% efficacy is the maximum response obtained with 4-methyl-2-(5-phenyl-1H-pyrazol-3-yl)phenol; ΔF508 CFTR NIH 3T3 cells
Each item that follows carries a reported Emax.

The examples below pair each entry with its known result.
INSERT INTO measurements (compound, tested_system, readout_value) VALUES
  ('Cc1ccc(NC(=O)C2CNc3cc(OC(F)(F)F)ccc3O2)c(C#CCN2CCC(F)(F)CC2)c1 (stereo not shown)', 'ΔF508-CFTR (Homo sapiens, UniProt P13569, DEL508-508)', '25 to 100%'),
  ('CC(C)(C)c1cc(C2CCCC2)c(O)cc1NC(=O)[C@H]1CNc2cc(C#N)ccc2O1', 'ΔF508-CFTR (Homo sapiens, UniProt P13569, DEL508-508)', '> 100%'),
  ('Cc1cnc(NC(=O)C2CNc3cc(OC(F)(F)F)ccc3O2)c(C#CCN(C)C)c1 (stereo not shown)', 'ΔF508-CFTR (Homo sapiens, UniProt P13569, DEL508-508)', '25 to 100%'),
  ('CC1(c2cc(F)c(NC(=O)C3CNc4cc(OC(F)(F)F)ccc4O3)cc2O)CCCCC1 (stereo not shown)', 'ΔF508-CFTR (Homo sapiens, UniProt P13569, DEL508-508)', '25 to 100%'),
  ('CC1(C(=O)Nc2cc(O)c(C3CCCC3)cc2C(F)(F)F)CNc2cc(OC(F)(F)F)ccc2O1 (stereo not shown)', 'ΔF508-CFTR (Homo sapiens, UniProt P13569, DEL508-508)', '25 to 100%'),
  ('CC(C)(C)c1cc(C(C)(C)C)c(NC(=O)C2CNc3ccccc3O2)cc1O (stereo not shown)', 'ΔF508-CFTR (Homo sapiens, UniProt P13569, DEL508-508)', '25 to 100%'),
  ('CC(C)(C)c1cc(C2CCCC2)c(O)cc1NC(=O)C1CNc2cc(S(C)(=O)=O)ccc2O1 (stereo not shown)', 'ΔF508-CFTR (Homo sapiens, UniProt P13569, DEL508-508)', '25 to 100%'),
  ('CCc1cc(CN2CCC(C)CC2)c(NC(=O)C2CNc3cc(OC(F)(F)F)ccc3O2)cc1O (stereo not shown)', 'ΔF508-CFTR (Homo sapiens, UniProt P13569, DEL508-508)', '> 100%');

[ask] Bench note: what Emax did CN(C)CC#Cc1cc(C2CCCC2)c(O)cc1NC(=O)[C@H]1CNc2ccccc2O1 show?
[reply] 25 to 100%

[ask] // repeat for O=C(Nc1ccc2c(C(F)(F)F)c[nH]c2c1)C1CNc2ccccc2O1 (stereo not shown) and report
[reply] 25 to 100%

Origin of measurements: patent US8999976B2
